Sourced from paper PMC12154458

Parameter: inhibition at 20 µM. Scope: all listed entries.
target: rSmTAChE (Schistosoma mansoni, UniProt A0A3Q0KMM5); assay: biochemical; conditions: read-out: HTS/rSmTAChE Inhibition (Ave, %)
Sequence (A0A3Q0KMM5 27-661 limits assumed): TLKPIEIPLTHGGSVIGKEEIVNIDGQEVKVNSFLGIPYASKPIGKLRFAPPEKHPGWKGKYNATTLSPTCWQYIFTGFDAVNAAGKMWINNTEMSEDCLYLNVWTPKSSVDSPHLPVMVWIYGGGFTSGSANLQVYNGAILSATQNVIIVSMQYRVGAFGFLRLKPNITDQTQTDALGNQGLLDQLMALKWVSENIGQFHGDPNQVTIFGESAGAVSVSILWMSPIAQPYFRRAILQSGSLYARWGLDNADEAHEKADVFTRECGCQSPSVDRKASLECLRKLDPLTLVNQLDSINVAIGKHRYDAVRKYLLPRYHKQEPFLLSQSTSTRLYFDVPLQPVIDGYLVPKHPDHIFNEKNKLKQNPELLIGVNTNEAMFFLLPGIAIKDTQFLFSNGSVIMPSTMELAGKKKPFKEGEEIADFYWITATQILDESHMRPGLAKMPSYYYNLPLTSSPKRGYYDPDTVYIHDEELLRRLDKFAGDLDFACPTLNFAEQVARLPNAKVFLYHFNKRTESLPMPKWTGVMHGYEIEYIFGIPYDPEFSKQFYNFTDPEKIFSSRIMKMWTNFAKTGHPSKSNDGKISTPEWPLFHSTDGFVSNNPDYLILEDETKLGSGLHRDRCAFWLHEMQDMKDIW
Measured metric: inhibition at 20 µM (%)

Compound	Measured metric	Numeric value
COc1cc(NC(C)CCCN)c2ncccc2c1 (stereo not shown) [Primaquine phosphate, reference compound]	inhibition at 20 µM	73.7
Cc1cn2nc([C@@H]3CCCCN3C(=O)c3cc(Cl)ccc3NS(C)(=O)=O)cc2nc1N1CC[C@H](N)C1 [Presatovir, reference compound]	inhibition at 20 µM	66.9
Cc1cc(Nc2ncc(Cl)c(Nc3ccccc3S(=O)(=O)C(C)C)n2)c(OC(C)C)cc1C1CCNCC1 [Ceritinib, reference compound]	inhibition at 20 µM	67
Cc1cc(OCCCS(C)(=O)=O)cc(C)c1-c1cccc(COc2ccc3c(c2)OC[C@H]3CC(=O)O)c1 [TAK-875, reference compound]	inhibition at 20 µM	65
C[C@H](Cc1ccc(O)c(O)c1)[C@@H](C)Cc1ccc(O)c(O)c1 [Masoprocol, reference compound]	inhibition at 20 µM	76.4
Oc1cc(Cl)ccc1Oc1ccc(Cl)cc1Cl [Triclosan, reference compound]	inhibition at 20 µM	68
COc1ccc2cc(-c3cc(-c4cc(Cl)cc(Cl)c4)nn3[C@@H](C)c3ccc(C(=O)NCCC(=O)O)cc3)ccc2c1 [MK-0893, reference compound]	inhibition at 20 µM	88.7
